meta.source: PubChem BioAssay

assay: PSAC antagonists in infected red cells, primary screen, cell-based, P. falciparum Indochina, OD700, 18 h (AID 1157); details: P. falciparum Indochina infected erythrocytes, osmotic lysis OD700, 18 h; higher = more signal, called active from +8 up or from −8 down
Lab note: anything with z-score at or over 0.3 counts as label 1; the rest go in label 0.

Answered examples (3):
{"compound": "COc1cc2c(cc1OC)CN(C(=O)[C@H]1[C@@H]3C(=O)O[C@@H](c4ccccc4)[C@@H](c4ccccc4)N3[C@@H](c3ccc(O)cc3)[C@]13C(=O)Nc1ccc(C#CC4=CCCCC4)cc13)CC2", "label_class": "label 1"}
{"compound": "[N-]=[N+]=NCc1ccccc1C[C@]1(C(=O)NCC(O)CO)N=C(c2ccc(OCCCO)cc2)O[C@H]1c1ccccc1 (stereo partly drawn)", "label_class": "label 1"}
{"compound": "O=C(O)[C@@]1(CCS(=O)(=O)c2ccccc2)COC(c2ccc(OCCCO)cc2)=N1", "label_class": "label 0"}

Ask: Is reported z-score greater than or equal to 0.3 here: COc1ccc([Si](C)(C)[C@H]2[C@H](CCO)O[C@@]3(C(=O)N(Cc4ccc(N5C(=O)COc6ccccc65)cc4)c4ccccc43)[C@@H]2C)cc1
Reply: label 1

Ask: Identify whether the reported z-score of the following compound is 0.3 or greater: CCN(CC)c1ccc(N2CC=CC34O[C@@H]5/C=C\CCCOC(=O)C5[C@H]3C(=O)N(CCO)[C@@H]4C2=O)cc1 (stereo partly drawn)
Reply: label 0

Ask: Textbook exercise: given the entry COCCOC(=O)N1C(=O)[C@@]2(c3cc(C#CCCO)ccc31)[C@H](C(=O)N1CCc3cc(OC)c(OC)cc3C1)[C@H]1C(=O)O[C@H](c3ccccc3)[C@H](c3ccccc3)N1[C@@H]2c1ccc(O)cc1 , state whether its z-score is greater than or equal to 0.3.
Reply: label 0

====

experiment: compound binding in COS7 lysate, probe aLAP1, primary screen, cell lysate, small-molecule microarray (AID 1124); details: probe aLAP1, fluorescence, higher = more signal;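 also: lysate comes from COS7 cells expressing LAP1 and is applied at 0.3 µg/mL; score merges spot fluorescence near 667 nm with signal-to-noise over triplicate slides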
Label condition met when composite z-score >= 0.7; otherwise condition not met.

Example entries begin here.
{"compound": "CC(C)c1ccc(NN2C(C(O)C(c3ccccc3)c3ccccc3)C=CC3C(=O)N(c4ccccc4)C(=O)C32)cc1 (configuration not stated)", "label_class": "condition met"}
{"compound": "CC(C)C[C@@H]1NC(=O)[C@H]2C[C@@H](C(=O)NCCCCCCN)[C@@H](c3ccc(O)cc3)N2C1=O", "label_class": "condition not met"}
{"compound": "[N-]=[N+]=Nc1ccccc1C[C@@]1(C(=O)NCCN2CCOCC2)N=C(c2ccc(OCCCO)cc2)O[C@@H]1c1ccccc1", "label_class": "condition met"}
{"compound": "C=C(COC)/C(=C/C[C@@H](OC(C)=O)c1ccc(OCCO)cc1)c1cc(C(=O)OC)ccc1OC", "label_class": "condition not met"}
{"compound": "O=C1NC(=O)C2C1C=CC(C(O)Cc1ccccc1)N2Nc1ccc(Cl)cc1Cl (configuration not stated)", "label_class": "condition not met"}

Ask: For this compound, is measured composite z-score 0.7 or higher? COc1ccc(C(=O)O[C@H]2CC[C@]3(C)C4=C(CCC3C2(C)C)[C@]2(C)CC[C@H]([C@H](C)CCCC(C)C)[C@@]2(C)CC4)cc1 (some centres not stated)
Reply: condition not met
